Attribution: patent US11040963B2

Listing of entries alongside the reported EC50.
System: H1N1 A/New Caledonia/20/99
Experiment: microbe, parasite or virus in culture
Assay type: cell-based, influenza A virus
Conditions: Influenza A virus, H1N1, MDCK, 96 h, read-out: Virus neutralization assay (VNA), pEC50 H1N1 A/New Caledonia/20/99 (converted)

molecule | EC50
COC(=O)C(c1ccccc1)N1CCN(C(=O)c2ccnc(-c3nc4cc(C(F)(F)F)ccc4o3)c2)CC1 (stereo not drawn) [Example 119] | 1580 nM
COC(=O)[C@@H](c1ccccc1)N1CCN(C(=O)c2cccc(-c3nc4ccccc4s3)c2)CC1 [Example 33] | 158 nM
COC(=O)C(c1ccccc1)N1CCN(C(=O)c2cccc(-c3nc4cc(O)ccc4o3)c2)CC1 (stereo not drawn) [Example 30] | 158 nM
COC(=O)C(C)(c1ccccc1)N1CCN(C(=O)c2cccc(-c3nc4ccc(OC)cc4s3)c2)CC1 (stereo not drawn) [Example 94] | 1000 nM
COc1ccc2nc(-c3cccc(C(=O)N4CCN([C@H](c5ccccc5)c5nnn(C)n5)CC4)c3)sc2c1 [Example 61] | 501 nM
COC(=O)C(c1ccccc1)N1CCN(C(=O)c2cccc(-c3nc4ccc(OC)cc4o3)c2)CC1 (stereo not drawn) [Example 60] | 501 nM
COc1ccc2nc(-c3cccc(C(=O)N4CCN(C(C(N)=O)c5ccccc5)CC4)c3)sc2c1 (stereo not drawn) [Example 84] | 631 nM
COC(=O)C(c1ccccc1)N1CCN(C(=O)c2cccc(-c3nc4ccncc4o3)c2)CC1 (stereo not drawn) [Example 43] | 251 nM
COc1ccc2nc(-c3cccc(C(=O)N4CCN(C(c5ccccc5)c5ncco5)CC4)c3)sc2c1 (stereo not drawn) [Example 74] | 631 nM
O=C(c1cccc(-c2nc3cc(C(F)(F)F)ccc3o2)c1)N1CCN(C(c2ccccc2)c2nnc(C3(O)CNC3)o2)CC1 (stereo not drawn) [Example 87] | 501 nM
COC(=O)C(c1ccccc1)N1CCN(C(=O)c2cccc(-c3nc4cc(N(C)C)ccc4o3)c2)CC1 (stereo not drawn) [Example 11] | 50.1 nM
Cc1nnc([C@@H](c2ccccc2)N2CCN(C(=O)c3cccc(-c4nc5cccc(C)c5o4)c3)CC2)o1 [Example 77] | 631 nM
COc1ccc2nc(-c3cccc(C(=O)N4CCN(C(C(=O)NCCN)c5ccccc5)CC4)c3)sc2c1 (stereo not drawn) [Example 93] | 794 nM
COC(=O)C(c1ccccc1)N1CCN(C(=O)c2cc(-c3nc4ccc(OC)cc4s3)ccn2)CC1 (stereo not drawn) [Example 14] | 63.1 nM
Cc1nnc(C(c2ccccc2)N2CCN(C(=O)c3cccc(-c4nc5cc(F)ccc5o4)c3)CC2)o1 (stereo not drawn) [Example 47] | 316 nM

---

Biological target: HA H1 A/New Caledonia/20/99 (Influenza A virus (A/New Caledonia/20/1999(H1N1)), UniProt Q6WG00)
Sequence (Q6WG00 18-565): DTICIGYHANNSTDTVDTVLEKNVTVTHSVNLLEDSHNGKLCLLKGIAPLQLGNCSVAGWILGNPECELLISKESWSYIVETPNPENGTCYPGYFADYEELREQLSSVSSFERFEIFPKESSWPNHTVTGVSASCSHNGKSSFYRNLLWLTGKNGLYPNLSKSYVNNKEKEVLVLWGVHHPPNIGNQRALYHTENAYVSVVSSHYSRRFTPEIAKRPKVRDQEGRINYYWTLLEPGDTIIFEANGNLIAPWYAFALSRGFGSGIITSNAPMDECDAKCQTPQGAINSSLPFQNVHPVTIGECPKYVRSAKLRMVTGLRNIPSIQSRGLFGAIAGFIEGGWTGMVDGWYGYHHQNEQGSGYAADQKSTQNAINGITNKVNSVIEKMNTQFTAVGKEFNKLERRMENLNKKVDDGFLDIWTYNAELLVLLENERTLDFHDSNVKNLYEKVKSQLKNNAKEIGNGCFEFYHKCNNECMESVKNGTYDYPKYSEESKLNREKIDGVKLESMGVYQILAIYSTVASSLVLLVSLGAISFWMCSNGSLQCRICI
Test: biochemical
Conditions: Competition binding (AlphaLISA), pIC50 H1 A/New Caledonia/20/99

compound | IC50 (nM)
O=C(c1cccc(-c2cc3ccccc3o2)c1)N1CCN(Cc2ccccc2)CC1 [Example 85] | 316
COC(=O)[C@H](c1ccccc1)N1CCN(C(=O)c2cccc(-c3nc4cc(OC)ccc4o3)c2)CC1 [Example 100] | 316
COC(=O)[C@@H](c1ccccc1)N1CCN(C(=O)c2cccc(-c3nc4cc(C(F)(F)F)ccc4o3)c2)[C@H](C)C1 [Example 37] | 50.1
CNC(=O)N(Cc1ccccc1)C1CCN(C(=O)c2cccc(-c3nc4ccc(OC)cc4s3)c2)CC1 [Example 118] | 316
